This collection of values is drawn from patent US9102648B1.

# tested.system: GAL4 DBD (1-147)-CfEcR(DEF)/VP16AD-βRXREF-LmUSPEF (Choristoneura fumiferana)
# test.name: cell-based
# test.context: read-out: Fold Induction, 27-63 Assay, 33 uM
Collected fold induction at 33 µM values appear next to each entry.
Give the figure only, with no unit attached.

Here's what some known entries look like.
>  <compound>
CCc1c(OC)cccc1C(=O)NN(C(=O)c1cc(C)cc(C)c1)C(C)(C)C(=O)O [RG-115044]

>  <quantity>
fold induction at 33 µM

>  <val>
2

$$$$
>  <compound>
CCCC(N(NC(=O)c1ccc2c(c1C)OCCO2)C(=O)c1cc(OC)c(C)c(OC)c1)C(C)(C)C (stereo not drawn) [RG-115865]

>  <quantity>
fold induction at 33 µM

>  <val>
76

$$$$
>  <compound>
COc1cccc(C(=O)NN(C(=O)c2cc(Cl)c(F)c(Cl)c2)C(C)(C)C)c1C [RG-101382]

>  <quantity>
fold induction at 33 µM

>  <val>
2570

$$$$
>  <compound>
CCc1c(OC)cccc1C(=O)NN(C(=O)c1cc(C)cc(C)c1)C(C)(C)C=O [RG-115407]

>  <quantity>
fold induction at 33 µM

>  <val>
1520

$$$$
>  <compound>
CCCC(N(NC(=O)c1ccc2c(c1CC)OCCO2)C(=O)c1cc(OC)c(C)c(OC)c1)C(C)(C)C (stereo not drawn) [RG-115867]

>  <quantity>
fold induction at 33 µM

>  <val>
654

$$$$
>  <compound>
CCC(N(NC(=O)c1ccc2c(c1C)OCCO2)C(=O)c1cc(C)cc(C)c1)C(C)(C)C (stereo not drawn) [RG-115856]

>  <quantity>
fold induction at 33 µM

>  <val>
1760

$$$$

Requested read-out: fold induction at 33 µM. Entry: COc1cccc(C(=O)NN(C(=O)c2cc(C)cc(C)c2)C(C)(C)C)c1C [RG-102398]
3180

Given the compound Cc1cc(C)cc(C(=O)N(NC(=O)c2ccc3c(c2C)OCCO3)C(C)(C)C)c1 [RG-102317] , what is its reported fold induction at 33 µM?
2500

Please look up its fold induction at 33 µM: CCC(N(NC(=O)c1cccc(OC)c1C)C(=O)c1cc(OC)c(C)c(OC)c1)C(C)(C)C (stereo not drawn) [RG-115820]
1970

What value of fold induction at 33 µM has been reported for the following compound? CCCC(N(NC(=O)c1ccc2c(c1CC)OCCO2)C(=O)c1cc(C)cc(C)c1)C(C)(C)C (stereo not drawn) [RG-115866]
3

Could you tell me which fold induction at 33 µM is on file for CCc1c(OC)cccc1C(=O)NN(C(=O)c1cc(C)cc(C)c1)C(C)(C)C=NO [RG-115258] ?
2210

Which fold induction at 33 µM is reported for this compound? CCOC(=O)C(C)(C)N(NC(=O)c1cccc(OC)c1CC)C(=O)c1cc(C)cc(C)c1 [RG-115025]
2240

# get_value(readout='fold induction at 33 µM', item= CC(C)(C)N(NC(=O)c1ccc(Cl)cc1)C(=O)c1ccccc1 [RG-100864] )
1180

What does the data say about its fold induction at 33 µM? Entry: CCCC(N(NC(=O)c1cccc(OC)c1CC)C(=O)c1cc(OC)c(C)c(OC)c1)C(C)(C)C (stereo not drawn) [RG-115829]
45

What value of measured fold induction at 33 µM is listed for CCc1c(C(=O)NN(C(=O)c2cc(C)cc(Cl)c2)C(C)(C)C)ccc2c1OCCO2 [RG-101494] ?
294

Value lookup for fold induction at 33 µM; key = CCC(N(NC(=O)c1cccc(OC)c1C)C(=O)c1cc(C)cc(C)c1)C(C)(C)C (stereo not drawn) [RG-115819]
2370

Item CCC(N(NC(=O)c1ccc2c(c1C)OCCO2)C(=O)c1cc(OC)c(C)c(OC)c1)C(C)(C)C (stereo not drawn) [RG-115857] has what recorded fold induction at 33 µM?
328

# query: fold induction at 33 µM of entry CCc1ccc(C(=O)NN(C(=O)c2cc(C)cc(C)c2)C(C)(C)C)c(F)c1 [RG-101523]
2740

What value of measured fold induction at 33 µM is listed for CCc1c(C(=O)NN(C(=O)c2cc(OC)c(C)c(OC)c2)C(CC)C(C)(C)C)ccc2c1OCCO2 (stereo not drawn) [RG-115859] ?
1060

Quick one: fold induction at 33 µM for CCC(N(NC(=O)c1cccc(C)c1C)C(=O)c1cc(C)cc(C)c1)C(C)(C)C (stereo not drawn) [RG-103309] ?
1200

Any idea what its fold induction at 33 µM is? The compound is COc1cc(C(=O)N(NC(=O)c2ccc3c(c2C)OCCO3)C(C)(C)C#N)cc(OC)c1C [RG-115092]
3110

What measured fold induction at 33 µM goes with COc1cc(C(=O)N(NC(=O)c2ccc3c(c2C)OCCO3)C(C)(C)C)cc(OC)c1C [RG-115637] ?
2740

Given CCCC(N(NC(=O)c1ccc2c(c1C)OCCO2)C(=O)c1cc(C)cc(C)c1)C(C)(C)C (stereo not drawn) [RG-115864] , state its recorded fold induction at 33 µM.
1260

Param item = CCc1c(C(=O)NN(C(=O)c2cc(C)cc(C)c2)C(CC)C(C)(C)C)ccc2c1OCCO2 (stereo not drawn) [RG-115858] ; retrieve measured fold induction at 33 µM.
182

###

In this section we review reported Z3 assay Rel Max FI values for a set of compounds.
# tested.system: Bombyx mori EcR (VP16 fusion, CVBE switch construct) (Bombyx mori, UniProt P49881)
# Sequence (P49881 86-606): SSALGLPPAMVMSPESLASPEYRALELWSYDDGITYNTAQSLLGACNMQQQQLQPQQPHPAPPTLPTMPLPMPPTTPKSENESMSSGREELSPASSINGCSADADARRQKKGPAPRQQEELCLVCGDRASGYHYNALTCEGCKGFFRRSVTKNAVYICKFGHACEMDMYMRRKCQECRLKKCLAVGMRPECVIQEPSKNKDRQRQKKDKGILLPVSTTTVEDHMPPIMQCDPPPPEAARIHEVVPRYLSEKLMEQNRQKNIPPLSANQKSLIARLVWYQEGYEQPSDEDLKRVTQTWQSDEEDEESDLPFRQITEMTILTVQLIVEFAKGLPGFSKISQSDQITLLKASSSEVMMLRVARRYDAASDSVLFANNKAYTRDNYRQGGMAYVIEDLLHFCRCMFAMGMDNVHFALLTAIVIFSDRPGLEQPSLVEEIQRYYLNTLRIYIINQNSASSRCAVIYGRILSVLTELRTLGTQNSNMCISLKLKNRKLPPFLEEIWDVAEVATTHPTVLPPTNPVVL
# Sequence (P19793 whole entry partner, the tested form may be a part): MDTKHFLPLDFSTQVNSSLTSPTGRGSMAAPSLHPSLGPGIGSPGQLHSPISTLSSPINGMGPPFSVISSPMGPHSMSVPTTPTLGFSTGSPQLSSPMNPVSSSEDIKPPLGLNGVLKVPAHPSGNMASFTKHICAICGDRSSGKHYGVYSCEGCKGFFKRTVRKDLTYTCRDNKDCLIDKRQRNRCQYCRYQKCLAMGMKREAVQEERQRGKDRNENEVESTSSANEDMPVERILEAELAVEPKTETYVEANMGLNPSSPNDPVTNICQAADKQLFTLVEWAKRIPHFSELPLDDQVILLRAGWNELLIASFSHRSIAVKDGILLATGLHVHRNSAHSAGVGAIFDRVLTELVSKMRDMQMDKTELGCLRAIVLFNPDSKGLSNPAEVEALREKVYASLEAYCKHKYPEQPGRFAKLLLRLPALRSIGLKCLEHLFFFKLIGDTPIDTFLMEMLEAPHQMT
# test.name: Z3 Assay (HEK-293 cells with CVBE and 6XEcRE LacZ, β-galactosidase reporter)
# test.context: maximum fold induction at any concentration relative to that of GS-E ligand; HEK-293 Z3 cells
Please respond with just the number, no unit label.

Returns the measured Z3 assay Rel Max FI for the input compound. Input: CCc1c(OC)cccc1C(=O)NN(C(=O)c1cc(OC)c(O)c(OC)c1)C(C)(C)C
0.960

Would you mind telling me what Z3 assay Rel Max FI value was observed for COc1cccc(C(=O)NN(C(=O)c2cc(C)cc(C)c2)C(C)(C)C)c1CSC ?
0.48

Tell me the measured Z3 assay Rel Max FI of Cc1ccc(F)c(C(=O)N(NC(=O)c2ccc3c(c2C)CCCO3)C(C)(C)C)c1 , please.
0.954

Quick one: Z3 assay Rel Max FI of CCc1c(OC)cccc1C(=O)NN(C(=O)c1cccc(C#N)c1)C(C)(C)C ?
0.662

Find the recorded Z3 assay Rel Max FI belonging to COc1cccc(C(=O)NN(C(=O)c2cc(C)cc(C)c2)C(C)(C)C)c1CCl and report it.
0.44

###

# tested.system: GAL4 DBD-CfEcR(DEF)/VP16AD-MmRXRE (Choristoneura fumiferana, UniProt O77240)
# test.name: 13B3 Assay (CHO stable cell line, luciferase reporter)
# test.context: 33 uM ligand; RLU ligand treated / RLU DMSO treated cells; average of two wells
Listed here are molecules together with their documented Fold Induction, 13B3 Assay, 33 uM.
Answer using only a numeral; do not append any unit.

Worked cases, answers included:
>  <molecule>
CCc1c(OC)cccc1C(=O)NN(C(=O)c1cc(C)cc(C)c1)C(C)(C)CO

>  <tested.system>
GAL4 DBD-CfEcR(DEF)/VP16AD-MmRXRE (Choristoneura fumiferana, UniProt O77240)

>  <val>
2032

$$$$
>  <molecule>
Cc1c(C(=O)NN(C(=O)c2cc(F)c(F)c(F)c2F)C(C)(C)C)ccc2c1CCCO2

>  <tested.system>
GAL4 DBD-CfEcR(DEF)/VP16AD-MmRXRE (Choristoneura fumiferana, UniProt O77240)

>  <val>
926

$$$$
>  <molecule>
COc1cccc(C(=O)NN(C(=O)c2cc(C)cc(C)c2)C(C)(C)C)c1I

>  <tested.system>
GAL4 DBD-CfEcR(DEF)/VP16AD-MmRXRE (Choristoneura fumiferana, UniProt O77240)

>  <val>
3027

$$$$
>  <molecule>
COc1cccc(C(=O)NN(C(=O)c2cc(C)cc(C)c2)C(C)(C)C)c1CF

>  <tested.system>
GAL4 DBD-CfEcR(DEF)/VP16AD-MmRXRE (Choristoneura fumiferana, UniProt O77240)

>  <val>
3

$$$$
>  <molecule>
Cc1cc(C)cc(C(=O)N(NC(=O)c2ccc3c(c2)OC(C)CO3)C(C)(C)C)c1 (racemic)

>  <tested.system>
GAL4 DBD-CfEcR(DEF)/VP16AD-MmRXRE (Choristoneura fumiferana, UniProt O77240)

>  <val>
1144

$$$$

Quick one: Fold Induction, 13B3 Assay, 33 uM for CC(C)(C)N(NC(=O)c1ccc(Br)cc1)C(=O)c1cc(Cl)cc(Cl)c1 ?
137

Query: Fold Induction, 13B3 Assay, 33 uM; subject: Cc1c(C(=O)NN(C(=O)c2ccc(F)c(F)c2)C(C)(C)C)ccc2c1CCCO2
2737

// returns reported Fold Induction, 13B3 Assay, 33 uM for input COc1cc(C)ccc1C(=O)N(NC(=O)c1cccc(OC)c1C)C(C)(C)C
386
